TARGET OF ASSAY: rat MOR (Rattus norvegicus, UniProt P33535)
Construct: expressed in transfected cells
Sequence (P33535 whole entry): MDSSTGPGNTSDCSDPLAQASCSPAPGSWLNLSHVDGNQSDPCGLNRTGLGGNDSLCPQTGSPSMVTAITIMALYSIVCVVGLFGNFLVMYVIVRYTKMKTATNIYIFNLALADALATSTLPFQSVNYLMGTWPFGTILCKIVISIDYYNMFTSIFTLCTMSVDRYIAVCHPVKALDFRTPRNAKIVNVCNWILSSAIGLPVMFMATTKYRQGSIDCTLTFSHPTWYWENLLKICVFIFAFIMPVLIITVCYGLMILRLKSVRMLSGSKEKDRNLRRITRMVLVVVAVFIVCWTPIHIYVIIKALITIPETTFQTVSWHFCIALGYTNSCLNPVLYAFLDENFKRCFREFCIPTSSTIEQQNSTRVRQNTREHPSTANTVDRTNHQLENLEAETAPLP
EXPERIMENT: radioligand equilibrium competition binding, MOR
CONDITION DETAILS: CHO cell membranes, [3H]DAMGO; mean ± SEM, at least three experiments
Square brackets hold non-standard residues; d marks the D form. Peptide text beside a SMILES is read from it. 1Nal = N[C@@H](Cc1cccc2ccccc12)C(=O)O; 2Nal = N[C@@H](Cc1ccc2ccccc2c1)C(=O)O; d1Nal = N[C@H](Cc1cccc2ccccc12)C(=O)O; d2Nal = N[C@H](Cc1ccc2ccccc2c1)C(=O)O; Bta = N[C@@H](Cc1csc2ccccc12)C(=O)O; dBta = N[C@H](Cc1csc2ccccc12)C(=O)O
OBSERVATION TYPE: Ki (nM)
Output spec: scalar in nM, unitless text.

Worked examples follow.
O=C1N[C@@H](Cc2ccccc2)C(=O)N2CCC[C@@H]2C(=O)N[C@@H](Cc2ccccc2)C(=O)N[C@H]1Cc1csc2ccccc12 [Bta^4, [Bta^4]CJ-15,208] (cyclo(F[dP]F[Bta])) ... 90.3
O=C1N[C@@H](Cc2ccccc2)C(=O)N2CCC[C@@H]2C(=O)N[C@@H](Cc2ccccc2)C(=O)N[C@H]1Cc1ccc2ccccc2c1 [Nal(2′)^4, [Nal(2′)^4]CJ-15,208] (cyclo(F[dP]F[2Nal])) ... 583
O=C1N[C@H](Cc2cccc3ccccc23)C(=O)N[C@@H](Cc2ccccc2)C(=O)N2CCC[C@@H]2C(=O)N[C@H]1Cc1ccccc1 [D-Nal(1′)^4, [D-Nal(1′)^4]CJ-15,208] (cyclo(F[dP]F[d1Nal])) ... 101
O=C1N[C@H](Cc2csc3ccccc23)C(=O)N[C@@H](Cc2ccccc2)C(=O)N2CCC[C@@H]2C(=O)N[C@H]1Cc1ccccc1 [D-Bta^4, [D-Bta^4]CJ-15,208] (cyclo(F[dP]F[dBta])) ... 84.2

Q: For the compound O=C1N[C@H](Cc2ccc3ccccc3c2)C(=O)N[C@@H](Cc2ccccc2)C(=O)N2CCC[C@@H]2C(=O)N[C@H]1Cc1ccccc1 [D-Nal(2′)^4, [D-Nal(2′)^4]CJ-15,208] (cyclo(F[dP]F[d2Nal])) , give its reported Ki.
Ans: 63.8

Q: For the compound O=C1N[C@@H](Cc2ccccc2)C(=O)N2CCC[C@@H]2C(=O)N[C@@H](Cc2ccccc2)C(=O)N[C@H]1Cc1cccc2ccccc12 [Nal(1′)^4, [Nal(1′)^4]CJ-15,208] (cyclo(F[dP]F[1Nal])) , give its reported Ki.
Ans: 110
